These data points were gathered from patent US4771062A.

- TEST TARGET: lipoxygenase activity of PMN (Rattus norvegicus, UniProt P12527)
- Construct: lipoxygenase activity of PMN in rats; endogenous in cells
- Sequence (P12527 whole entry): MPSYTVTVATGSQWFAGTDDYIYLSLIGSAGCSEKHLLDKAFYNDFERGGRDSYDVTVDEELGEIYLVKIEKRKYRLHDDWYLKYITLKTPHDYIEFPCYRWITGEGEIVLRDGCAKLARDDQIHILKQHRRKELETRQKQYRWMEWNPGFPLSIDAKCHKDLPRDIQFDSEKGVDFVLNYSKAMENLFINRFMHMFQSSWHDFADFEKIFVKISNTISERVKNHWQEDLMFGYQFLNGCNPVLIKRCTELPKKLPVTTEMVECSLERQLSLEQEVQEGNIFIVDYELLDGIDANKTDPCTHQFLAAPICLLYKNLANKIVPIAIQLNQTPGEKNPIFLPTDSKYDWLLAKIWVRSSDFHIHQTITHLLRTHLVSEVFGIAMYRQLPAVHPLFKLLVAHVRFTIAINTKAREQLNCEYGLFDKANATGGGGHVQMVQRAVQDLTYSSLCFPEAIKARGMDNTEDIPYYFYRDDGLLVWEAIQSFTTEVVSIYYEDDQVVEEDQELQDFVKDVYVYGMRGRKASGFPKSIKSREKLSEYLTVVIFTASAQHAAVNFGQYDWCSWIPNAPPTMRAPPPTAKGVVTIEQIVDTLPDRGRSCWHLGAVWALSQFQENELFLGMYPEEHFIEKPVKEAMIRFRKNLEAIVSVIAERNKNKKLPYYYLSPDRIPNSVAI
- METHOD NOTES: LTB4 formed after stimulation with Ca-ionophor, determined by reversed phase HPLC, as a measure of the lipoxygenase activity of PMN
- STATED CONDITIONS: LTB4 formation, Ca-ionophor stimulated rat PMN
pIC50 for assorted compounds
Please note pIC50 is a logarithmic value: minus log10 of concentration in mol/L. Answer with that number alone.

{"COMPOUND STRUCTURE": "Cc1ccc(S(=O)(=O)Nc2ccc(Sc3ccc(NC4=NCCS4)cc3)cc2)cc1", "pIC50": 6.84}
{"COMPOUND STRUCTURE": "c1ccc(Sc2ccc(NC3=NCCS3)cc2)cc1", "pIC50": 7.01}

Next:
Enquiry: Identify measured pIC50 associated with CN1CCSC1=Nc1ccc(Sc2ccc(N=C3SCCN3C)cc2)cc1
Return: 6.58

====

- TEST TARGET: lipoxygenase activity of PMN (Rattus norvegicus)
- Construct: lipoxygenase activity of PMN in rats; endogenous in cells
- METHOD NOTES: LTB4 formed after stimulation with Ca-ionophor, determined by reversed phase HPLC, as a measure of the lipoxygenase activity of PMN
- STATED CONDITIONS: LTB4 formation, Ca-ionophor stimulated rat PMN
- Procedure: The pharmacological action of the substances according to the invention was determined by the following method: The leucotriene B4 (LTB4) formed after stimulation with Ca-ionophor is determined by means of reversed phase HPLC in accordance with the method of Borgeat et al. Proc. Natl. Acad. Sci. USA, 76, 215 (1982) as a measure of the lipoxygenase activity of PMN in rats.
Counter-ions that a name gives are not always drawn.
PROPERTY: pIC50
Please note pIC50 is a logarithmic value: minus log10 of concentration in mol/L. Answer with that number alone.

Examples with their reported pIC50 follow.
{"MOLECULE": "COC(=O)Cc1cc(NC2=NCCS2)ccc1Sc1ccccc1", "pIC50": 6.68}
{"MOLECULE": "c1cc(Sc2ccc(NC3=NCCS3)cc2)ccc1NC1=NCCS1 [Example 3, HCl salt]", "pIC50": 6.11}
{"MOLECULE": "CC1CN=C(Nc2ccc(Sc3ccc(NC4=NCC(C)S4)cc3)cc2)S1 (centres unmarked)", "pIC50": 6.91}
{"MOLECULE": "c1cc(Sc2ccc(NC3=NCCS3)cc2)ccc1NC1=NCCS1 [Example 2]", "pIC50": 6.46}

Next:
Enquiry: Identify measured pIC50 associated with c1ccc(C2CSC(Nc3ccc(Sc4ccc(NC5=NC(c6ccccc6)CS5)cc4)cc3)=N2)cc1 (centres unmarked)
Return: 6.30
